Test system: Aspergillus terreus
assayDetails: Ratio of MIC for drug to ketoconazole against Aspergillus terreus
Format: functional
Assign criterion met to entries whose Ratio meets or exceeds 2; assign criterion not met to the rest.

Prompt: Could you please find out whether "O=C(CO[N+](=O)[O-])N1CCN(c2ccc(OC[C@H]3CO[C@](Cn4ccnc4)(c4ccc(Cl)cc4Cl)O3)cc2)CC1" has Ratio that meets 2 or exceeds it?
Completion: criterion not met

Prompt: Could you please find out whether "COCO/N=[N+](\[O-])N1CCN(c2ccc(OC[C@H]3CO[C@](Cn4ccnc4)(c4ccc(Cl)cc4Cl)O3)cc2)CC1" has Ratio that meets 2 or exceeds it?
Completion: criterion not met

Prompt: Could you please find out whether "CCO/N=[N+](\[O-])N1CCN(c2ccc(OC[C@H]3CO[C@](Cn4ccnc4)(c4ccc(Cl)cc4Cl)O3)cc2)CC1" has Ratio that meets 2 or exceeds it?
Completion: criterion not met

Prompt: Could you please find out whether "O=[N+]([O-])OCCN1CCN(c2ccc(OC[C@H]3CO[C@](Cn4ccnc4)(c4ccc(Cl)cc4Cl)O3)cc2)CC1" has Ratio that meets 2 or exceeds it?
Completion: criterion met

Prompt: Could you please find out whether "[Na+].[O-]/N=[N+](\[O-])N1CCN(c2ccc(OC[C@H]3CO[C@](Cn4ccnc4)(c4ccc(Cl)cc4Cl)O3)cc2)CC1" has Ratio that meets 2 or exceeds it?
Completion: criterion met

Prompt: Could you please find out whether "CC(C)(CO[N+](=O)[O-])C(=O)N1CCN(c2ccc(OC[C@H]3CO[C@](Cn4ccnc4)(c4ccc(Cl)cc4Cl)O3)cc2)CC1" has Ratio that meets 2 or exceeds it?
Completion: criterion not met

Prompt: Could you please find out whether "Clc1ccc([C@@]2(Cn3ccnc3)OC[C@H](COc3ccc(N4CCNCC4)cc3)O2)c(Cl)c1" has Ratio that meets 2 or exceeds it?
Completion: criterion met

----------
System: Aspergillus fumigatus
assayDetails: Ratio of MIC for drug to ketoconazole against Aspergillus fumigatus
Format: functional
measuredAttribute: Ratio
Lab note: jot the number down without any unit.

Prompt: Suppose we examine the compound "CC(C)(CO[N+](=O)[O-])C(=O)N1CCN(c2ccc(OC[C@H]3CO[C@](Cn4ccnc4)(c4ccc(Cl)cc4Cl)O3)cc2)CC1" ; what Ratio value has been reported?
Completion: 0.05

Prompt: Suppose we examine the compound "O=C(CO[N+](=O)[O-])N1CCN(c2ccc(OC[C@H]3CO[C@](Cn4ccnc4)(c4ccc(Cl)cc4Cl)O3)cc2)CC1" ; what Ratio value has been reported?
Completion: 0.4

Prompt: Suppose we examine the compound "O=C(CO/N=[N+](\[O-])N1CCCC1)N1CCN(c2ccc(OC[C@H]3CO[C@](Cn4ccnc4)(c4ccc(Cl)cc4Cl)O3)cc2)CC1" ; what Ratio value has been reported?
Completion: 2

Prompt: Suppose we examine the compound "COCO/N=[N+](\[O-])N1CCN(c2ccc(OC[C@H]3CO[C@](Cn4ccnc4)(c4ccc(Cl)cc4Cl)O3)cc2)CC1" ; what Ratio value has been reported?
Completion: 0.13

Prompt: Suppose we examine the compound "[Na+].[O-]/N=[N+](\[O-])N1CCN(c2ccc(OC[C@H]3CO[C@](Cn4ccnc4)(c4ccc(Cl)cc4Cl)O3)cc2)CC1" ; what Ratio value has been reported?
Completion: 3.2

Prompt: Suppose we examine the compound "O=[N+]([O-])OCCN1CCN(c2ccc(OC[C@H]3CO[C@](Cn4ccnc4)(c4ccc(Cl)cc4Cl)O3)cc2)CC1" ; what Ratio value has been reported?
Completion: 16

Prompt: Suppose we examine the compound "Clc1ccc([C@@]2(Cn3ccnc3)OC[C@H](COc3ccc(N4CCNCC4)cc3)O2)c(Cl)c1" ; what Ratio value has been reported?
Completion: 32

Prompt: Suppose we examine the compound "CCO/N=[N+](\[O-])N1CCN(c2ccc(OC[C@H]3CO[C@](Cn4ccnc4)(c4ccc(Cl)cc4Cl)O3)cc2)CC1" ; what Ratio value has been reported?
Completion: 0.2

----------
System: Candida albicans
assayDetails: Antifungal activity against Candida albicans after 24 hrs by broth microdilution method
Assay type: functional
Field: MIC. Provide a value for each of the molecules that follow.
Express the result in µM but write the number alone.

Prompt: Suppose we examine the molecule "COCO/N=[N+](\[O-])N1CCN(c2ccc(OC[C@H]3CO[C@](Cn4ccnc4)(c4ccc(Cl)cc4Cl)O3)cc2)CC1" ; what MIC value has been reported?
Completion: 25

Prompt: Suppose we examine the molecule "CCO/N=[N+](\[O-])N1CCN(c2ccc(OC[C@H]3CO[C@](Cn4ccnc4)(c4ccc(Cl)cc4Cl)O3)cc2)CC1" ; what MIC value has been reported?
Completion: 50

Prompt: Suppose we examine the molecule "O=C(CO/N=[N+](\[O-])N1CCCC1)N1CCN(c2ccc(OC[C@H]3CO[C@](Cn4ccnc4)(c4ccc(Cl)cc4Cl)O3)cc2)CC1" ; what MIC value has been reported?
Completion: 25

Prompt: Suppose we examine the molecule "Clc1ccc([C@@]2(Cn3ccnc3)OC[C@H](COc3ccc(N4CCNCC4)cc3)O2)c(Cl)c1" ; what MIC value has been reported?
Completion: 25

Prompt: Suppose we examine the molecule "[Na+].[O-]/N=[N+](\[O-])N1CCN(c2ccc(OC[C@H]3CO[C@](Cn4ccnc4)(c4ccc(Cl)cc4Cl)O3)cc2)CC1" ; what MIC value has been reported?
Completion: 100

----------
Field: log10(MIC). Provide a value for each of the compounds that follow.
System: Nakaseomyces glabratus
assayDetails: Antifungal activity against Candida glabrata after 24 hrs by broth microdilution method
Assay type: functional
Note the log scale: values are log10 of MIC expressed in µM.

Prompt: Suppose we examine the compound "Clc1ccc([C@@]2(Cn3ccnc3)OC[C@H](COc3ccc(N4CCNCC4)cc3)O2)c(Cl)c1" ; what log10(MIC) value has been reported?
Completion: 1.70

Prompt: Suppose we examine the compound "O=C(CO/N=[N+](\[O-])N1CCCC1)N1CCN(c2ccc(OC[C@H]3CO[C@](Cn4ccnc4)(c4ccc(Cl)cc4Cl)O3)cc2)CC1" ; what log10(MIC) value has been reported?
Completion: 1.10

Prompt: Suppose we examine the compound "CC(C)(CO[N+](=O)[O-])C(=O)N1CCN(c2ccc(OC[C@H]3CO[C@](Cn4ccnc4)(c4ccc(Cl)cc4Cl)O3)cc2)CC1" ; what log10(MIC) value has been reported?
Completion: 0.50

Prompt: Suppose we examine the compound "O=C(CO[N+](=O)[O-])N1CCN(c2ccc(OC[C@H]3CO[C@](Cn4ccnc4)(c4ccc(Cl)cc4Cl)O3)cc2)CC1" ; what log10(MIC) value has been reported?
Completion: 0.19

Prompt: Suppose we examine the compound "CCO/N=[N+](\[O-])N1CCN(c2ccc(OC[C@H]3CO[C@](Cn4ccnc4)(c4ccc(Cl)cc4Cl)O3)cc2)CC1" ; what log10(MIC) value has been reported?
Completion: 0.50

Prompt: Suppose we examine the compound "O=[N+]([O-])OCCN1CCN(c2ccc(OC[C@H]3CO[C@](Cn4ccnc4)(c4ccc(Cl)cc4Cl)O3)cc2)CC1" ; what log10(MIC) value has been reported?
Completion: 0.80

Prompt: Suppose we examine the compound "[Na+].[O-]/N=[N+](\[O-])N1CCN(c2ccc(OC[C@H]3CO[C@](Cn4ccnc4)(c4ccc(Cl)cc4Cl)O3)cc2)CC1" ; what log10(MIC) value has been reported?
Completion: 1.10

Prompt: Suppose we examine the compound CC(=O)N1CCN(c2ccc(OCC3COC(Cn4ccnc4)(c4ccc(Cl)cc4Cl)O3)cc2)CC1 (configuration not stated) ; what log10(MIC) value has been reported?
Completion: 1.10

Prompt: Suppose we examine the compound "COCO/N=[N+](\[O-])N1CCN(c2ccc(OC[C@H]3CO[C@](Cn4ccnc4)(c4ccc(Cl)cc4Cl)O3)cc2)CC1" ; what log10(MIC) value has been reported?
Completion: 0.50

----------
System: Fusarium oxysporum
assayDetails: Ratio of MIC for drug to ketoconazole against Fusarium oxysporum
Type: functional
measuredAttribute: Ratio

Prompt: Suppose we examine the molecule "COCO/N=[N+](\[O-])N1CCN(c2ccc(OC[C@H]3CO[C@](Cn4ccnc4)(c4ccc(Cl)cc4Cl)O3)cc2)CC1" ; what Ratio value has been reported?
Completion: 0.5

Prompt: Suppose we examine the molecule "CCO/N=[N+](\[O-])N1CCN(c2ccc(OC[C@H]3CO[C@](Cn4ccnc4)(c4ccc(Cl)cc4Cl)O3)cc2)CC1" ; what Ratio value has been reported?
Completion: 0.1

Prompt: Suppose we examine the molecule "[Na+].[O-]/N=[N+](\[O-])N1CCN(c2ccc(OC[C@H]3CO[C@](Cn4ccnc4)(c4ccc(Cl)cc4Cl)O3)cc2)CC1" ; what Ratio value has been reported?
Completion: 0.4

Prompt: Suppose we examine the molecule "CC(C)(CO[N+](=O)[O-])C(=O)N1CCN(c2ccc(OC[C@H]3CO[C@](Cn4ccnc4)(c4ccc(Cl)cc4Cl)O3)cc2)CC1" ; what Ratio value has been reported?
Completion: 0.05

Prompt: Suppose we examine the molecule "Clc1ccc([C@@]2(Cn3ccnc3)OC[C@H](COc3ccc(N4CCNCC4)cc3)O2)c(Cl)c1" ; what Ratio value has been reported?
Completion: 4

Prompt: Suppose we examine the molecule "O=C(CO[N+](=O)[O-])N1CCN(c2ccc(OC[C@H]3CO[C@](Cn4ccnc4)(c4ccc(Cl)cc4Cl)O3)cc2)CC1" ; what Ratio value has been reported?
Completion: 0.2

Prompt: Suppose we examine the molecule "O=[N+]([O-])OCCN1CCN(c2ccc(OC[C@H]3CO[C@](Cn4ccnc4)(c4ccc(Cl)cc4Cl)O3)cc2)CC1" ; what Ratio value has been reported?
Completion: 2

Prompt: Suppose we examine the molecule "O=C(CO/N=[N+](\[O-])N1CCCC1)N1CCN(c2ccc(OC[C@H]3CO[C@](Cn4ccnc4)(c4ccc(Cl)cc4Cl)O3)cc2)CC1" ; what Ratio value has been reported?
Completion: 2
